Molecular target: T1, Human IL22 (human, UniProt Q9GZX6 34-179)
T1 construct: IL22 of the Biacore and cell assays
T1 sequence: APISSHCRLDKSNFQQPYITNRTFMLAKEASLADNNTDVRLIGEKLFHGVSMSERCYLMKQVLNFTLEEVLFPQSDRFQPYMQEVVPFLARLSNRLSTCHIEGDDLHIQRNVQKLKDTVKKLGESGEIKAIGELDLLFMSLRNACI
Assay: SPR (Biacore); Fab variant, human IL22
metric: pKd
When answering, recall that pKd equals minus log10 of the concentration in mol/L, and write that number alone.

Exercise: pKd for 11041gL7 C91S S96A gH12 D54E (Fab, V domains shown, V-regions only; also called 11041gL14gH18) VH: EVQLVESGGGLVQPGGSLRLSCAVSGFSLSSYAMIWVRQAPGKGLEWISIIDIEGSTYYASWAKGRFTISRDNSKNTLYLQMNSLRAEDTAVYYCARDRFVGVDIFDPWGQGTLVTVSS VL: AIQLTQSPSSLSASVGDRVTITCQASEDIYTNLAWYQQKPGKAPKLLIYWASTLASGVPSRFSGSGSGTDFTLTISSLQPEDFATYYCQASVYGNAADSRYTFGGGTKVEIK ?
Solution: 10.17

Exercise: pKd for 11041gL1 C91S gH1 D54E (Fab, V domains shown, V-regions only; also called 11041gL2gH3) VH: EVQLVESGGGLVQPGGSLRLSCAVSGFSLSSYAMIWVRQAPGKGLEWIGIIDIEGSTYYASWAKGRFTISRDSSKNTVYLQMNSLRAEDTAVYYCARDRFVGVDIFDPWGQGTLVTVSS VL: AVVLTQSPSSLSASVGDRVTITCQASEDIYTNLAWYQQKPGKAPKLLIYWASTLASGVPSRFSGSGSGTDFTLTISSLQPEDFATYYCQASVYGNSADSRYTFGGGTKVEIK ?
Solution: 10.55

Exercise: pKd for 11041gL6 C91S S96A gH12 D54E (Fab, V domains shown, also called 11041gL13gH18) VH: EVQLVESGGGLVQPGGSLRLSCAVSGFSLSSYAMIWVRQAPGKGLEWISIIDIEGSTYYASWAKGRFTISRDNSKNTLYLQMNSLRAEDTAVYYCARDRFVGVDIFDPWGQGTLVTVSS VL: AVQLTQSPSSLSASVGDRVTITCQASEDIYTNLAWYQQKPGKAPKLLIYWASTLASGVPSRFSGSGSGTDFTLTISSLQPEDFATYYCQASVYGNAADSRYTFGGGTKVEIKR ?
Solution: 10.29
